Recorded values, source ChEMBL document CHEMBL1909046.

Target: Glycine receptor (Rattus norvegicus, UniProt P22771+P24524+P07727+P20781); also: in other assays of this panel Not Active means under 50% inhibition at 10 µM
Format: cell membranes, Wistar, Spinal cord, Membrane

- Substance: "OXALIPLATIN"
  Ki: "Not Active"
- Substance: "CISPLATIN"
  Ki: "Not Active"
- Substance: "GOLD SODIUM THIOMALATE"
  Ki: "Not Active"
- Substance: "CARBOPLATIN"
  Ki: "Not Active"

====

Biological target: Substance-K receptor (Homo sapiens, UniProt P21452); also: in other assays of this panel Not Active means under 50% inhibition at 10 µM
Sequence (P21452 whole entry): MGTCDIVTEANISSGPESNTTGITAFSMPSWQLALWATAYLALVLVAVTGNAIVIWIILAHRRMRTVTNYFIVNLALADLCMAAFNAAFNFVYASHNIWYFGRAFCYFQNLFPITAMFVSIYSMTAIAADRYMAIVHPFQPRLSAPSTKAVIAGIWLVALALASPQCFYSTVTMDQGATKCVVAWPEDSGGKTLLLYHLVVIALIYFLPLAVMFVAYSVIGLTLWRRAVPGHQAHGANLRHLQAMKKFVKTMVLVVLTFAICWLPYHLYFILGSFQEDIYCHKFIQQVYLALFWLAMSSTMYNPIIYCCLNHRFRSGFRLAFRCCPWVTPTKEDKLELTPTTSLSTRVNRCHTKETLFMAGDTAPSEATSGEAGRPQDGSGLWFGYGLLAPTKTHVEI
Format: cell membranes, CHO, Membrane
Conditions: read-out: Ki
Value kind: pKi
Units for pKi: none; it is -log10 of a concentration expressed in mol/L.

Name the recorded pKi of the compound listed here: COc1ccc(CCN2CCC(Nc3nc4ccccc4n3Cc3ccc(F)cc3)CC2)cc1 [ASTEMIZOLE] 6.00

In one line, give reported pKi of the entry CCCCCCCCCc1ccc(O)cc1 [4-NONYLPHENOL] . 5.82

Query pKi for Oc1c(Cl)cc(Cl)cc1Sc1cc(Cl)cc(Cl)c1O [BITHIONOL] 5.81

Tell me its pKi given CC(C)(O)c1ccccc1CC[C@@H](SCC1(CC(=O)O)CC1)c1cccc(/C=C/c2ccc3ccc(Cl)cc3n2)c1 [MONTELUKAST] as the entry. 5.89

Using known records, supply pKi for O=c1cc(-c2ccccc2)oc2c1ccc1ccccc12 [ALPHA-NAPHTHOFLAVONE] 5.71

For the compound CC(C)(C)NC(=O)[C@@H]1CN(Cc2cccnc2)CCN1C[C@@H](O)C[C@@H](Cc1ccccc1)C(=O)N[C@H]1c2ccccc2C[C@H]1O.O , give its measured pKi value. 5.77

Using known records, supply pKi for Clc1ccccc1C(c1ccccc1)(c1ccccc1)n1ccnc1 [CLOTRIMAZOLE] 5.47
